Each recorded value in this set is attributed to patent US9546153B2.

Tested on: TLR2 induced IL-6 in peripheral blood mononuclear cells (PBMCs)
Assay: PBMC TLR2 Induced IL-6 Assay
Format: cell-based, human
Conditions: Homo sapiens, PBMC, 5 h, human PBMCs, 10 μg/ml lipoteichoic acid for 5 hours, IL-6 by ELISA; value without asterisk; read-out: Cell IC50
Task for the reader: assign each of the following compounds its reported IC50.

Kindly note the recorded IC50 for CC(C)CCNC(=O)c1cnc(Nc2ccc3ncsc3c2)cc1NC(C)C [Example 210] , which is 0.551 µM

Kindly note the recorded IC50 for CC(C)(O)[C@H](F)CNC(=O)c1cnc(Nc2ccc3ncc(F)cc3n2)cc1NC1CCOCC1 [Example 428] , which is 0.052 µM

Kindly note the recorded IC50 for CC(C)(O)[C@H](F)CNC(=O)c1cnc(Nc2ncc3ncccc3n2)cc1N[C@H]1CCC[C@@H]1F [Example 445] , which is 0.106 µM

Kindly note the recorded IC50 for CCNC(=O)[C@H]1CC[C@H](NC(=O)c2cnc(Nc3ccc4ncsc4c3)cc2NC(C)C)CC1 [Example 225] , which is 0.535 µM

Kindly note the recorded IC50 for O=C(NC[C@@H](F)CO)c1cnc(Nc2ccc3[nH]c(=O)sc3c2)cc1NC1CCCC1 [Example 6] , which is 0.231 µM

Kindly note the recorded IC50 for CC(C)(O)[C@H](F)CNC(=O)c1cnc(Nc2ccc3ncsc3c2)cc1NCCO [Example 161] , which is 0.577 µM

Kindly note the recorded IC50 for CC(C)(O)[C@H](F)CNC(=O)c1cnc(Nc2cc3scnc3cc2F)cc1NC1CCCOC1 (some centres unmarked) [Example 517] , which is 1.29 µM

Kindly note the recorded IC50 for CC(C)(O)[C@H](F)CNC(=O)c1cnc(Nc2ccc3ncsc3c2)cc1NC1CCOCC1 [Example 52] , which is 0.116 µM

* * *

Task for the reader: assign each of the following compounds its reported pIC50.
System: TLR2 induced IL-6 in peripheral blood mononuclear cells (PBMCs)
Experiment: PBMC TLR2 Induced IL-6 Assay
Type: cell-based, human
Settings: Homo sapiens, PBMC, 5 h, human PBMCs, 10 μg/ml lipoteichoic acid for 5 hours, IL-6 by ELISA; value without asterisk; read-out: Cell IC50
# pIC50 = -log10(concentration in molar units)

Kindly note the recorded pIC50 for CC(C)(O)[C@H](F)CNC(=O)c1cnc(Nc2ccc3ncoc3c2)cc1N[C@@H]1CCCC1F (some centres unmarked) [Example 354] , which is 6.40

Kindly note the recorded pIC50 for CC(C)Nc1cc(Nc2nc3ccnn3cc2F)ncc1C(=O)NCC(F)(F)C(C)(C)O [Example 522] , which is 6.10

Kindly note the recorded pIC50 for CC(C)(O)[C@H](F)CNC(=O)c1cnc(Nc2ccn3nccc3n2)cc1NC1CCC1 [Example 241] , which is 6.29

Kindly note the recorded pIC50 for CC(C)(O)[C@H](F)CNC(=O)c1cnc(Nc2ccc3ncsc3c2)cc1NC12CCC(N)(CC1)C2 [Example 140] , which is 6.66

Kindly note the recorded pIC50 for CC(Nc1cc(Nc2ccc3ncsc3c2)ncc1C(=O)NC[C@@H](F)C(C)(C)O)C(F)(F)F (some centres unmarked) [Example 91] , which is 7.19

Kindly note the recorded pIC50 for CC(C)NC(=O)N[C@@H](C)CCNC(=O)c1cnc(Nc2ccc3ncsc3c2)cc1NC(C)C [Example 181] , which is 6.34

Kindly note the recorded pIC50 for CC(C)Nc1cc(Nc2ccc3ncsc3c2)ncc1C(=O)NCC[C@@H](C)NC(=O)CCCCC(C)(C)O [Example 191] , which is 6.35

Kindly note the recorded pIC50 for CC(C)(C)CNc1cc(Nc2ccc3nccn3n2)ncc1C(=O)NC[C@@H](F)C(C)(C)O [Example 275] , which is 6.47
